- system under test: T1, human EphA5 ligand-binding domain (LBD), residues 59-235 (human, UniProt P54756 59-235, K232E (from the reverse primer; not stated by the paper) | C233A (from the …, disulfide bridges Cys137-Cys147 and Cys102-Cys220; 15N-labelled for the NMR titration)
- T1 construct: Cloned through BamHI into a modified pET32a and released by thrombin, so extra N-terminal residues (probably GS) may remain; also called EphA5 LBD; source: E. coli Rosetta-gami (DE3), purified (Ni-NTA, thrombin cleavage, gel filtration, Mono Q)
- T1 sequence (P54756 59-235 K232E/C233A): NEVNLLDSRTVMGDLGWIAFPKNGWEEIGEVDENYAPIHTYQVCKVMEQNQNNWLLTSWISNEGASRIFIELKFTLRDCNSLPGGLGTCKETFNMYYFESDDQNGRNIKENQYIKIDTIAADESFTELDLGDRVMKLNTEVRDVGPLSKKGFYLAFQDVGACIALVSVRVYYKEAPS
- experiment notes: ITC; EphA5 LBD in the cell, bacterially expressed WDC in the syringe; 10 mM phosphate buffer pH 6.3, 25°C; single binding site model
- stated conditions: both partners purified
pKd: −log10 of the molar value. Bridge positions count the residues as written; N and C are the ends. Ends that are not written are not given here.

{"columns": ["binder", "pKd"],
 "data": [
  ["WDCNGPYCHWLG (disulfide 3-8 (inferred), 12-residue peptide previously identified in a phage-display screen on the extracellular domain of rat EphA5; Cloned through BamHI into a modified pGEX-4T-1; also called WDC peptide; recombinant peptide; source: E. coli Rosetta-gami (DE3), GST fusion, released by in-gel thrombin cleavage, HPLC purified) [WDC antagonistic peptide (WDCNGPYCHWLG), bacterially expressed]", 5.21]
]}
